Value source: patent US20150110794A1

Field: kon. Provide a value for each of the binders that follow.
experimentalSystem: T1, AD4 polypeptide (cloned AD4 fragment of CMV AD169 envelope glycoprotein B) (human cytomegalovirus strain AD169, UniProt P06473 112-438)
T1 construct: also called antigenic domain 4
assayMethodText: SPR (Biacore T200), antibody captured on anti-human IgG CM5 chip, AD4 polypeptide as analyte, 1:1 model
API: value field is a number in M⁻¹ s⁻¹; no unit string.

Value lookup for kon; key = C4 (antibody, V domains shown, Human IgG, transiently expressed in HEK293) VH: QVQLQESGPGLVKPLETLSLTCTVSGGSISSGSFYWTWIRQHPGKGLEWIGYIHSSGTTYYNPSLKSRLNISRDTSKNQFTLKLSSVTAADTAVYYCAKEIIQWPRRWFDPWGQGTLVTVSS VL: QSVLTQPPSVSAAPGQKVIISCSGSGSNIGSHYVNWYQQLPGAAPKLLIYDNDKRPSGIPDRFSGSKSGTSATLAITGLQTGDEADYHCATWDGTLTAGVFGGGTKLTVLG
908000

Given C10 (antibody, V domains shown, Human IgG, transiently expressed in HEK293) VH: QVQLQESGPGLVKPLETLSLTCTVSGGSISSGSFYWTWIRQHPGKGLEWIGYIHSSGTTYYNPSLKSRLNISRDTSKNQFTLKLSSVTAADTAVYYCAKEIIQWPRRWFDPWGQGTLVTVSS VL: QSVLTQPPSASGTPGQRVTISCSGSSSNIGSNYIDWYQQLPGTGPQLLTYRNNQRPSGVPDRFSGSKSGTSASLAISGLRSEDEADYYCASWDDSLSSPVFGGGTKLTVLG , state its recorded kon.
496000

// returns reported kon for input C9 (antibody, V domains shown, Human IgG, transiently expressed in HEK293) VH: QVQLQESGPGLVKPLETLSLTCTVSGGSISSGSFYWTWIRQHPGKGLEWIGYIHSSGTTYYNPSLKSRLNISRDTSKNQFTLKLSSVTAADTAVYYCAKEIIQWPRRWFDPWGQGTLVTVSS VL: QSVLTQPPSVSAAPGQKVTISCSGSRSNIAKNYVYWYQQLPGTAPKLLIYDTNKRPSGIPDRFSGSKSGTSATLAITGLQTGDEADYYCGTWDSSLKTAIFFGGGTTVTVLG
602000
